# maps each entry to its GI50
tested on: U-251; assay: NCI tumour cell line growth inhibition, 48 h
Calls of active or inactive are those of the source. No stated cut-off is given here; in the data, active = GI50 up to about 1.1 µM and inactive = higher.

Worked set:
COc1ccccc1N1C(=O)/C(=C/c2ccc(N(CCC#N)CCC#N)cc2C)N=C1c1cc([N+](=O)[O-])ccc1Cl
> 100 µM (inactive)
C=CCCC(=O)N1CCC(C(=O)OCC)C1=O (centres undefined)
> 100 µM (inactive)
CCC(C)C1=C(OC(C)=O)[N+]2([O-])Oc3ccc(-c4c(OC(C)=O)c(OC(C)=O)c(-c5ccc(OC(C)=O)cc5)c(OC(C)=O)c4OC(C)=O)cc3OC2(C(C)CC)C(=O)N1OC(C)=O (centres undefined)
23.8 µM (inactive)

Let's switch to this molecule now.
Lab note: record GI50 of Cc1cc(NC(=O)C2C3C=CC(O3)C2C(=O)O)no1 (centres undefined) tested on U-251.
21.3 µM (inactive)
